Data origin, for the record: a melting point compilation (Tetko et al.; mined from patent text by program, amines drawn as free bases though some values may be those of a salt)

Measure Name: melting point

| Compound | melting point |
| --- | --- |
| COc1ccc2[nH]cc(C3CCN(C(=O)NCC4CCC(c5ccccc5)(N(C)C)CC4)CC3)c2c1 (centres undefined) | 98 to 100 °C |

Inquiry: melting point lookup needed for C[C@@H](Oc1c(Br)cc(-c2c3ccccc3c(Br)c3sc4ccccc4c23)cc1Br)C(=O)O , thanks.
Reply text: 131 to 133 °C

Inquiry: melting point lookup needed for CCOC(=O)c1ccc(N=C(Nc2ccc(C(=O)OCC)cc2)c2ccc(C(C)(C)C)cc2)cc1 , thanks.
Reply text: 212 to 219 °C

Inquiry: melting point lookup needed for C1=C(c2ccc3c(c2)OCO3)CCC2(C1)OCCO2 , thanks.
Reply text: 75 to 76 °C

Inquiry: melting point lookup needed for N#CC(C(=O)NCC(=O)O)C(=O)c1nn(-c2ccccc2)c2c1CSc1ccccc1-2 (centres undefined) , thanks.
Reply text: 224 to 226 °C

Inquiry: melting point lookup needed for CCOC(=O)n1c(C(=O)c2ccccc2)c(N)c2c(Cl)cccc21 , thanks.
Reply text: 118 to 119 °C

Inquiry: melting point lookup needed for COc1cc2c(cc1OC)C(CN1CCN(c3ccc(F)cc3)CC1)OCCC2 (centres undefined) , thanks.
Reply text: 135 to 136 °C

Inquiry: melting point lookup needed for Clc1ccc(Cn2cnc3ccc(Cl)nc32)c(Cl)c1 , thanks.
Reply text: 149 to 150 °C

Inquiry: melting point lookup needed for COc1cc2c(cc1Cl)C(O[Si](C)(C)C)(c1ccccc1Cl)C(=O)N2 (centres undefined) , thanks.
Reply text: 211 to 212 °C

====

Measure Name: melting point

Before answering, review these 3 worked examples.
| Compound | melting point |
| --- | --- |
| CC(C)(C)OC(=O)NC12CC3CC(C1)CC(OS(C)(=O)=O)(C3)C2 | 100 to 102 °C |
| COc1cc(NC(=O)C(C#N)=CNc2ccsc2)c(Cl)cc1Cl | > 250 °C |
| Nc1nc(N)c2c(n1)CCC(Cc1ccccc1Cl)C2 (stereo unspecified) | 134 °C |

Inquiry: melting point lookup needed for Cn1cc(-c2cnccn2)cc(Br)c1=O , thanks.
Reply text: 196 to 197 °C

Inquiry: melting point lookup needed for CC1CC=C(c2nnn[nH]2)CN1CC(=O)O (stereo unspecified) , thanks.
Reply text: 136 to 138 °C

Inquiry: melting point lookup needed for Nc1sc2c(c1C(=O)c1ccc3ccccc3c1)CCN(Cc1ccccc1F)C2 , thanks.
Reply text: 183 to 185 °C

====

Measure Name: melting point

Before answering, review these 4 worked examples.
| Compound | melting point |
| --- | --- |
| COc1ccccc1-c1cccc2nc(Nc3cc(OC)c(OC)c(OC)c3)oc12 | 185 to 187 °C |
| O=Cc1c(N2CCNCC2)n(-c2ccccc2)c2ccccc12 | 175 °C |
| Nc1c(Cl)cc(S(=O)(=O)C(F)(F)F)cc1[N+](=O)[O-] | 138 to 139 °C |
| Cc1cccc2c(N3CCS(=O)CC3)nc(N3CCNCC3)cc12 | 201 to 203 °C |

Inquiry: melting point lookup needed for O=[N+]([O-])c1cccc2c3c(cc([N+](=O)[O-])c12)NCC3CCl (stereo unspecified) , thanks.
Reply text: 206 to 207 °C

Inquiry: melting point lookup needed for CC(=O)c1cc(NC(=O)CCCC(=O)Nc2cc(C(C)=O)cc(C(C)=O)c2)cc(C(C)=O)c1 , thanks.
Reply text: 200 to 203 °C

Inquiry: melting point lookup needed for COC(=O)NC1=NCC(c2cccc(OC)c2)CN1 (stereo unspecified) , thanks.
Reply text: 218 to 221 °C

Inquiry: melting point lookup needed for COc1ccc(/C=C/c2ccc3c(=O)n(-c4ccccn4)ncc3c2)cc1 , thanks.
Reply text: 213 to 214 °C

Inquiry: melting point lookup needed for CC(NC(Nc1cc(C(F)(F)F)cc(C(F)(F)F)c1)=C(C#N)S(=O)(=O)C(C)C)C(C)(C)C (stereo unspecified) , thanks.
Reply text: 177 to 180 °C

Inquiry: melting point lookup needed for O=c1[nH]c2ccccc2n1CCCN1CCNCC1 , thanks.
Reply text: 158 °C

Inquiry: melting point lookup needed for Cn1nc2c(N)nc3ccccc3c2c1CC1(F)CCN(S(C)(=O)=O)CC1 , thanks.
Reply text: 283 to 285 °C

Inquiry: melting point lookup needed for Cc1cc(NCCO)c([N+](=O)[O-])cc1O , thanks.
Reply text: 174 °C

Inquiry: melting point lookup needed for CC(=O)Nc1ccc(S(=O)(=O)Nc2ccccc2)cc1 , thanks.
Reply text: 209 to 210 °C

Inquiry: melting point lookup needed for COC(=O)[C@]12CN(Cc3ccccc3)C[C@@H]1C(c1ccc(OC)cc1)=CC[C@@]2(C)c1ccccc1 (racemic) , thanks.
Reply text: 132 °C

Inquiry: melting point lookup needed for CCN1C(=O)C(C)(C)C(=O)N(C)c2cc(CN(CCn3ccc4oc(C)c(C)c4c3=O)Cc3cc(C)nn3C)ccc21 , thanks.
Reply text: 148 to 150 °C

Inquiry: melting point lookup needed for COC(=O)Nc1nc2ccc(OS(=O)(=O)c3ccc(-n4ccnc4)cc3)cc2[nH]1 , thanks.
Reply text: 258 °C

Inquiry: melting point lookup needed for CCOc1ccc(CCNC(=O)C(N)=O)cc1OCC , thanks.
Reply text: 168 to 169 °C

Inquiry: melting point lookup needed for CC(=O)Oc1cc2c(cc1OC(C)=O)OCC(c1ccccc1)C2 (stereo unspecified) , thanks.
Reply text: 102 °C

Inquiry: melting point lookup needed for OCCN1CCC(Nc2nc3cncnc3n2Cc2ccc(F)cc2)CC1 , thanks.
Reply text: 159 °C

Inquiry: melting point lookup needed for Cc1ccc2c(c1F)N(C1CC1)CNS2(=O)=O , thanks.
Reply text: 135 to 138 °C

Inquiry: melting point lookup needed for Cc1nn(-c2ccc(C(F)(F)F)cn2)cc1COc1cc(CCC(=O)O)n(C)n1 , thanks.
Reply text: 154 to 155 °C

Inquiry: melting point lookup needed for COC1=C(N=O)C(=O)NC1=Cc1ccccc1 , thanks.
Reply text: 172 °C

Inquiry: melting point lookup needed for OC(c1ccc2c(c1)COCO2)c1cn(C(c2ccccc2)(c2ccccc2)c2ccccc2)cn1 (stereo unspecified) , thanks.
Reply text: 165 to 167 °C
